test: Reversed phase partition chromatography (lipophilic-hydrophilic balance)
Type: physicochemical
test.context: linearly related to partition coefficients in 1-octanol/water, read-out: Rm
Would you mind telling me the reported chromatographic logP of each entry?

Lab note: each compound below needs its chromatographic logP filled in.
1. Cc1ccc2c(N)c3cccc(C(=O)NCCN(C)C)c3nc2c1
2. Cc1cccc2c(N)c3cccc(C(=O)NCCN(C)C)c3nc12
3. Nc1c2ccccc2nc2c(C(=O)NCCNCCO)cccc12
4. COc1cccc2c(N)c3cccc(C(=O)NCCN(C)C)c3nc12

OUTPUT:
1. -0.82
2. -1.02
3. -1.06
4. -1.06

* * *

Tested on: P388 tumour cells
test: P388 in vivo, life span extension
Design: species or system mice (F1 hybrid, DBA-2 male x C57 B1 female); key: Y: implies a significant value of drug activity at the stated dose; N: implies no or not statistically significant activity
test.context: at the stated (optimal) dose
outcome.measure: P388 in vivo Active

compound.structure.string: COc1ccc2nc3c(C(=O)NCCN(C)C)cccc3c(N)c2c1
P388 in vivo Active: N
//
compound.structure.string: NCCNC(=O)c1cccc2c(N)c3ccccc3nc12
P388 in vivo Active: Y
//
compound.structure.string: Cc1ccc2c(N)c3cccc(C(=O)NCCN(C)C)c3nc2c1
P388 in vivo Active: N
//
compound.structure.string: CN(C)CCNC(=O)c1cccc2c(N)c3ccc([N+](=O)[O-])cc3nc12
P388 in vivo Active: Y

Lab note: each molecule below needs its P388 in vivo Active filled in.
1. COc1cccc2c(N)c3cccc(C(=O)NCCN(C)C)c3nc12
2. COc1ccc2c(N)c3cccc(C(=O)NCCN(C)C)c3nc2c1
3. CN(C)CCNC(=O)c1cccc2c(N)c3cc([N+](=O)[O-])ccc3nc12.Cl.Cl
4. CN(C)CCNC(=O)c1cc([N+](=O)[O-])cc2c(N)c3ccccc3nc12
5. CN(C)CCNC(=O)c1cccc2c(N)c3cccc(Cl)c3nc12

OUTPUT:
Y
N
Y
Y
Y

* * *

test: Reversed phase partition chromatography (lipophilic-hydrophilic balance)
Type: physicochemical
test.context: linearly related to partition coefficients in 1-octanol/water, read-out: Rm
outcome.measure: chromatographic logP
One number for each entry.

Worked cases, answers included:
compound: CN(C)CCCNC(=O)c1cccc2c(N)c3ccccc3nc12 [Compound 5]
chromatographic logP: -0.93
--
compound: CCN(CC)CCNC(=O)c1cccc2c(N)c3ccccc3nc12 [Compound 7]
chromatographic logP: -0.67
--
compound: CN(C)CCNC(=O)c1cccc2c(N)c3ccccc3nc12 [Compound 4]
chromatographic logP: -1.11
--
compound: CN(C)CCNC(=O)c1cccc2c(N)c3cc(N)ccc3nc12 [Compound 21]
chromatographic logP: -1.64
--
compound: Cc1c2ccccc2nc2c(C(=O)NCCN(C)C)cccc12 [Compound 2]
chromatographic logP: -0.3

Lab note: each compound below needs its chromatographic logP filled in.
1. CN(C)CCNC(=O)c1cccc2c(N)c3cc([N+](=O)[O-])ccc3nc12.Cl.Cl [Compound 20, dihydrochloride]
2. NCCNC(=O)c1cccc2c(N)c3ccccc3nc12 [Compound 8]
3. CNc1c2ccccc2nc2c(C(=O)NCCN(C)C)cccc12 [Compound 3]
4. CN(C)CCNC(=O)c1cccc2cc3ccccc3nc12 [Compound 1]

OUTPUT:
-1.29
-1.18
-1.11
-0.2

Values from patent US4590277A
